// reported IC50 per item
Tested on: MDA-MB-231
protocol_text: cells
Assay type: functional, cell-based
settings: Homo sapiens
Description: SANGER: Inhibition of human MDA-MB-231 cell growth in a cell viability assay.

> print(dat)
                           structure.smiles  target.under.test     reading
1  OC[C@H](Cc1ccccc1)Nc1nc(Oc2ccc3c(c2)CCC3)nc2c1ncn2Cc1ccc(-c2ccccc2)cc1         MDA-MB-231  > 10200 nM
2  C/C(=C\c1csc(C)n1)[C@@H]1C[C@@H]2O[C@]2(C)CCC[C@H](C)[C@H](O)[C@@H](C)C(=O)C(C)(C)[C@@H](O)CC(=O)O1         MDA-MB-231     24.6 nM
3  O=C(NCCCNc1nc(Nc2cccc(NC(=O)N3CCCC3)c2)ncc1I)c1cccs1         MDA-MB-231   > 5000 nM
4  COC(=O)[C@H](CCSC)NC(=O)c1ccc(NC[C@@H](N)CS)cc1-c1ccccc1         MDA-MB-231   > 1020 nM

Please look at the following molecule next.
Input: Give the reported value of IC50 for this record: `CS(=O)(=O)N1CCN(Cc2cc3nc(-c4cccc5[nH]ncc45)nc(N4CCOCC4)c3s2)CC1`
Output: > 4000 nM
